- Tested on: Escherichia coli
- assay_info: Minimum inhibitory concentration of the compound againstEscherichia coli HN818 strain was determined
- Format: functional
MIC: recorded values
readout: MIC (µg/mL)

1. CC(C)[C@H](NC(=O)C[C@H](NC(=O)/C=C/c1ccc(Cl)c(Cl)c1)c1ccccc1)C(=O)[C@@H]1C(=O)NC(=O)[C@H]1C    1
2. C/C=C/C=C/C=C/C(=O)N[C@@H](CC(=O)N[C@H](C(=O)[C@@H]1C(=O)NC(=O)[C@H]1C)C(C)C)c1ccccc1    32
3. CC(C)[C@H](NC(=O)C[C@H](NC(=O)/C=C/c1ccccc1)c1ccccc1)C(=O)[C@@H]1C(=O)NC(=O)[C@H]1C    2

* * *

- Tested on: Escherichia coli
- assay_info: Minimum inhibitory concentration of the compound againstEscherichia coli Neumann strainwas determined
- Format: functional
readout: MIC

1) C/C=C/C=C/C(=O)N[C@@H](CC(=O)N[C@H](C(=O)[C@@H]1C(=O)N(NC)C(=O)[C@H]1C)C(C)C)c1ccccc1    > 64 µg/mL
2) C/C=C/C=C/C(=O)N[C@@H](CC(=O)N[C@H](C(=O)C1C(=O)NC(=O)CC1C)C(C)C)c1ccccc1 (stereo partly specified)    > 64 µg/mL
3) C/C=C/C=C/C(=O)N[C@@H](CC(=O)N[C@H](C(=O)C1CCC(=O)NC1=O)C(C)C)c1ccccc1 (stereo partly specified)    > 64 µg/mL
4) C/C=C/C=C/C(=O)N[C@@H](CC(=O)N[C@H](C(=O)[C@@H]1C(=O)N(C)C(=O)[C@H]1C)C(C)C)c1ccccc1    > 64 µg/mL
5) C/C=C/C=C/C(=O)N[C@@H](CC(=O)N[C@H](C(=O)[C@@H]1C(=O)NC(=O)C1(C)C)C(C)C)c1ccccc1    > 64 µg/mL
6) C/C=C/C=C/C(=O)N[C@@H](CC(=O)N[C@H](C(=O)[C@@H]1C(=O)N(C2CC2)C(=O)[C@H]1C)C(C)C)c1ccccc1    > 64 µg/mL

* * *

- System: Escherichia coli
- assay_info: Minimum inhibitory concentration of the compound againstEscherichia coli Neumann strainwas determined
- Format: functional
readout: MIC (µg/mL)

1) COc1cccc(/C=C/C(=O)N[C@@H](CC(=O)N[C@H](C(=O)[C@@H]2C(=O)NC(=O)[C@H]2C)C(C)C)c2ccccc2)c1    32
2) CC(C)[C@H](NC(=O)C[C@H](NC(=O)/C=C/c1ccc(Cl)c(Cl)c1)c1ccccc1)C(=O)[C@@H]1C(=O)NC(=O)[C@H]1C    8
3) CC(C)[C@H](NC(=O)C[C@H](NC(=O)/C=C/c1ccccc1)c1ccccc1)C(=O)[C@@H]1C(=O)NC(=O)[C@H]1C    32

* * *

- Test system: Escherichia coli
- assay_info: Minimum inhibitory concentration of the compound againstEscherichia coli HN818 strain was determined
- Assay type: functional
readout: MIC

1) C/C=C/C=C/C(=O)N[C@@H](CC(=O)N[C@H](C(=O)C1CCC(=O)NC1=O)C(C)C)c1ccccc1 (stereo partly drawn)    > 64 µg/mL
2) C/C=C/C=C/C(=O)N[C@@H](CC(=O)N[C@H](C(=O)[C@@H]1C(=O)N(C)C(=O)[C@H]1CC)C(C)C)c1ccccc1    > 64 µg/mL
3) C/C=C/C=C/C(=O)N[C@@H](CC(=O)N[C@H](C(=O)C1C(=O)NC(=O)CC1C)C(C)C)c1ccccc1 (stereo partly drawn)    > 64 µg/mL
